Data provenance: paper PMC9476189

# target-entity: UniProtKB P07374
# Sequence (P07374 whole entry, looked up): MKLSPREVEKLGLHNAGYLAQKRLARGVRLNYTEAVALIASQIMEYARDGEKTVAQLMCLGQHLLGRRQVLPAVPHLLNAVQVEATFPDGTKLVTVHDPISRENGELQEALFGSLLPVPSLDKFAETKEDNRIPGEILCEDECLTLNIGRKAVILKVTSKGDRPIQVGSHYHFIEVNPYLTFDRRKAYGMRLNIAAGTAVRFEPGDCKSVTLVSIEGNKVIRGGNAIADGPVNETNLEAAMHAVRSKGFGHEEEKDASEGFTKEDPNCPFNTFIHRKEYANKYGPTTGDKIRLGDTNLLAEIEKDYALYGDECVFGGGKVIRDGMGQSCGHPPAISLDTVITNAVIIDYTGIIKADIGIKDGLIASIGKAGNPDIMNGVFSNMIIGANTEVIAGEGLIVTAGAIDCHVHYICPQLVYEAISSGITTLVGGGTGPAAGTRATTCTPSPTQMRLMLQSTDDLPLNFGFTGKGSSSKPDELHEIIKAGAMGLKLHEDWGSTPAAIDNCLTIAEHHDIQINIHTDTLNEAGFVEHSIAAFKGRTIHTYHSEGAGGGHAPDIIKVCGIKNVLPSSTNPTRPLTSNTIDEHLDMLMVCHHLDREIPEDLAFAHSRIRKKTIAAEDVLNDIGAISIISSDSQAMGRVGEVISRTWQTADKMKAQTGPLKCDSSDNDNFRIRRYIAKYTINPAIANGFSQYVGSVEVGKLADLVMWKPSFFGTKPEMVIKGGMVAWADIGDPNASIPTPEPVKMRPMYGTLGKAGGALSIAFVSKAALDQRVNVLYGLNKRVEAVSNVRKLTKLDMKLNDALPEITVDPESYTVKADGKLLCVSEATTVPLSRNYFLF
# conditions: read-out: urease inhibition, IC50; mean ± SEM, triplicate
Labelling: IC50 reported below 100 µM becomes y; at or above becomes n.

# molecule, target-entity, group-label
rows = [
    ("Cc1ccc(S(=O)(=O)N2CCC(c3nnc(SCC(=O)Nc4c(C)cccc4[N+](=O)[O-])n3C)CC2)cc1 [Compound 12o]", "UniProtKB P07374", "n"),
    ("Cc1ccc(S(=O)(=O)N2CCC(c3nnc(SCC(=O)Nc4ccc(C)cc4C)n3C)CC2)cc1 [Compound 12j]", "UniProtKB P07374", "n"),
    ("Cc1ccc(S(=O)(=O)N2CCC(c3nnc(SCC(=O)Nc4cc(C)ccc4C)n3C)CC2)cc1 [Compound 12k]", "UniProtKB P07374", "n"),
    ("Cc1ccc(S(=O)(=O)N2CCC(c3nnc(SCC(=O)Nc4cccc(C)c4C)n3C)CC2)cc1 [Compound 12i]", "UniProtKB P07374", "n"),
    ("Cc1ccc(S(=O)(=O)N2CCC(c3nnc(SCC(=O)Nc4ccccc4C)n3C)CC2)cc1 [Compound 12c]", "UniProtKB P07374", "n"),
    ("Cc1ccc(S(=O)(=O)N2CCC(c3nnc(SCC(=O)Nc4cccc(C)c4)n3C)CC2)cc1 [Compound 12d]", "UniProtKB P07374", "y"),
    ("Cc1ccc(S(=O)(=O)N2CCC(c3nnc(SCC(=O)Nc4cc(C)cc(C)c4)n3C)CC2)cc1 [Compound 12m]", "UniProtKB P07374", "y"),
]
